B1: tRNA (parent)
chain: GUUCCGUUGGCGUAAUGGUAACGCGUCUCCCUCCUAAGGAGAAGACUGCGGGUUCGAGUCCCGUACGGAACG

- Variants of: B1
- Test Protocol: yeast fitness, log relative to wild type (ln ratio); higher = fitter; tRNA-Arg(CCU), competitive growth, 37 C, 1 M NaCl
Returns Yes if the recorded yeast fitness (ln) is greater than or equal to -0.3, and No otherwise.

Sequence Data: GCUCCUUUGGCGUAAUGGUAACGCGUCUCCCUCCUAAGGAGACGAUUGCGGGUUCGAGUCCCGUAAGGGUCG [U2C G6U A43C C46U C66A A69G A70U]
Qualitative Label: Yes
--
Sequence Data: AGUCCGUUGGCGUAAUGGUAACGCGUUUCCCUCCUAAGGAGACGAUUGCGGGUUCGAGUCCCGUACGGGGCG [G1A U2G C27U A43C C46U A69G A70G]
Qualitative Label: Yes
--
Sequence Data: AUUCCUUUGGCGUAAUGGUAACGCGUUUCCCUCCUAAGGAGAAGAUUGCGGGUUCGAGUCCCGUAAGGGUUG [G1A G6U C27U C46U C66A A69G A70U C71U]
Qualitative Label: No
--
Sequence Data: ACUCCGUUGGCGUAAUGGUAACGCGUCUCCCUCCUAAGGAGACGAUUGCGGGUUCGAGUCCCGUAAGGGGUG [G1A U2C A43C C46U C66A A69G A70G C71U]
Qualitative Label: Yes
--
Sequence Data: GGUCCUUUGGCGUAAUGGUAACGCGUUUCCCUCCUAAGGAGACGACUGCGGGUUCGAGUCCCGUAAGGGUCG [U2G G6U C27U A43C C66A A69G A70U]
Qualitative Label: No
--
Sequence Data: GUUCCGUUGGCGUAAUGGUAACGCGUUUCCCUCCUAAGGAGACGAUUGCGGGUUCGAGUCCCGUAAGGAACG [C27U A43C C46U C66A]
Qualitative Label: Yes
--
Sequence Data: GCUCCUUUGGCGUAAUGGUAACGCGUCUCCCUCCUAAGGAGAAGAUUGCGGGUUCGAGUCCCGUAUGGAGUG [U2C G6U C46U C66U A70G C71U]
Qualitative Label: Yes
--
Sequence Data: GGUCCGUUGGCGUAAUGGUAACGCGUCUCCCUCCUAAGGAGACGACUGCGGGUUCGAGUCCCGUAUGGAUUG [U2G A43C C66U A70U C71U]
Qualitative Label: No
--
Sequence Data: AGUCCGUUGGCGUAAUGGUAACGCGUUUCCCUCCUAAGGAGACGACUGCGGGUUCGAGUCCCGUACGGGGCG [G1A U2G C27U A43C A69G A70G]
Qualitative Label: Yes
--
Sequence Data: GUUCCAUUGGCGUAAUGGUAACGCGUCUCCCUCCUAAGGAGACGACUGCGGGUUCGAGUCCCGUACGGAUCG [G6A A43C A70U]
Qualitative Label: Yes
--
Sequence Data: AGUCCUUUGGCGUAAUGGUAACGCGUCUCCCUCCUAAGGAGACGAUUGCGGGUUCGAGUCCCGUAUGGGGCG [G1A U2G G6U A43C C46U C66U A69G A70G]
Qualitative Label: No
--
Sequence Data: GGUCCAUUGGCGUAAUGGUAACGCGUCUCCCUCCUAAGGAGACGACUGCGGGUUCGAGUCCCGUACGGAACG [U2G G6A A43C]
Qualitative Label: Yes
--
Sequence Data: AUUCCAUUGGCGUAAUGGUAACGCGUCUCCCUCCUAAGGAGAAGAUUGCGGGUUCGAGUCCCGUAAGGAAUG [G1A G6A C46U C66A C71U]
Qualitative Label: Yes
--
Sequence Data: GUUCCUUUGGCGUAAUGGUAACGCGUCUCCCUCCUAAGGAGAAGACUGCGGGUUCGAGUCCCGUAAGGAUCG [G6U C66A A70U]
Qualitative Label: Yes
--
Sequence Data: AUUCCGUUGGCGUAAUGGUAACGCGUUUCCCUCCUAAGGAGACGAUUGCGGGUUCGAGUCCCGUAUGGGAUG [G1A C27U A43C C46U C66U A69G C71U]
Qualitative Label: No
--
Sequence Data: GCUCCAUUGGCGUAAUGGUAACGCGUUUCCCUCCUAAGGAGAAGACUGCGGGUUCGAGUCCCGUAUGGAUUG [U2C G6A C27U C66U A70U C71U]
Qualitative Label: Yes
--
Sequence Data: ACUCCUUUGGCGUAAUGGUAACGCGUUUCCCUCCUAAGGAGAAGAUUGCGGGUUCGAGUCCCGUACGGAAUG [G1A U2C G6U C27U C46U C71U]
Qualitative Label: Yes
--
Sequence Data: GUUCCGUUGGCGUAAUGGUAACGCGUUUCCCUCCUAAGGAGAAGAUUGCGGGUUCGAGUCCCGUAAGGGGUG [C27U C46U C66A A69G A70G C71U]
Qualitative Label: Yes
--
Sequence Data: AGUCCGUUGGCGUAAUGGUAACGCGUCUCCCUCCUAAGGAGAAGACUGCGGGUUCGAGUCCCGUAUGGGUUG [G1A U2G C66U A69G A70U C71U]
Qualitative Label: No
--
Sequence Data: AUUCCAUUGGCGUAAUGGUAACGCGUUUCCCUCCUAAGGAGAAGAUUGCGGGUUCGAGUCCCGUACGGAAUG [G1A G6A C27U C46U C71U]
Qualitative Label: Yes
--
Sequence Data: AUUCCGUUGGCGUAAUGGUAACGCGUCUCCCUCCUAAGGAGAAGACUGCGGGUUCGAGUCCCGUAAGGAUUG [G1A C66A A70U C71U]
Qualitative Label: Yes
